- Study system: EphB4, purified recombinant human (rhEphB4) (human, UniProt P54760 16-987)
- Sequence (P54760 16-987): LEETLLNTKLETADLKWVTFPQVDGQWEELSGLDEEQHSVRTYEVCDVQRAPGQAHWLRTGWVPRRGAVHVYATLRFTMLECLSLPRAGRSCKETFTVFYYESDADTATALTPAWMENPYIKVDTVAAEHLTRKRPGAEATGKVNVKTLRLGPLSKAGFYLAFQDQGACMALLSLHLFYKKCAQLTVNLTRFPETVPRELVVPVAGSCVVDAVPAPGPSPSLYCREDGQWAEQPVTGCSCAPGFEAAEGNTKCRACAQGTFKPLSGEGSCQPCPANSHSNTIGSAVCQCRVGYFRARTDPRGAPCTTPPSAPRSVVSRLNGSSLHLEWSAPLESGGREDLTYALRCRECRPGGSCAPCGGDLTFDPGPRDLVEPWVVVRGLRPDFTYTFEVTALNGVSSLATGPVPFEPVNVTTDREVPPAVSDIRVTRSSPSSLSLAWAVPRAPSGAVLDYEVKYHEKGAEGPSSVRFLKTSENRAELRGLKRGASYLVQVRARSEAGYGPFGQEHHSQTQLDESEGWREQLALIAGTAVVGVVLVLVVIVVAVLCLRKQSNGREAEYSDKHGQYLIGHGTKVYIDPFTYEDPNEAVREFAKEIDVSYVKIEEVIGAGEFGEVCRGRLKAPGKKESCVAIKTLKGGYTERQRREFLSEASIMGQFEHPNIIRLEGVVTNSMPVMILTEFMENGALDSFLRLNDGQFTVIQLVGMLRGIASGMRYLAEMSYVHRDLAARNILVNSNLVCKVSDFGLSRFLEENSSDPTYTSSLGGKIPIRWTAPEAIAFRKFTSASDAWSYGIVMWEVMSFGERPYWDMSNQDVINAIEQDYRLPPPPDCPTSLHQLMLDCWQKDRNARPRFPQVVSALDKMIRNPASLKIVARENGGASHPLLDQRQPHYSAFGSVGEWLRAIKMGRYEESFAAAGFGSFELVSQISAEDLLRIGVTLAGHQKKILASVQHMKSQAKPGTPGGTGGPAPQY
- Test: SPR; competition: serial dilutions of BIDEN-AP (2 nM to 1000 nM) mixed with human EphB4 (30 nM) and injected onto EFNB2-Fc-coated CM-5 chips
- Condition: both partners purified
Non-standard residues stand in square brackets, D forms with d. No end group written: not given here.
Measured metric: IC50 (nM)

Binder	Reading
TN[dY]LFSPNGPIARAW (TNYL-RAW with L-Tyr-P3 replaced by D-Tyr; source: synthetic peptide) [BIDEN-AP (bi-directional ephrin agonist peptide), TNd(Y)LFSPNGPIARAW]	4

All values here come from paper PMC6965176.
